Give measured Fold IC50 increase relative to wild-type for each item. Keep answers brief.
target: HIV-1 JR-CSF Env Q337A (HIV-1 isolate JR-CSF) (UniProt P20871); test: cell-based or functional assay
Give the number first and the unit second.

| binder | Fold IC50 increase relative to wild-type |
| --- | --- |
| PGT-131 (antibody, V domains shown) VH: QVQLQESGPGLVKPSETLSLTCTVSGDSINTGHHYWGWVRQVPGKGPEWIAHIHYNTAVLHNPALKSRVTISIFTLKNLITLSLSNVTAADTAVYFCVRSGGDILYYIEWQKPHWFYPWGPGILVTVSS VL: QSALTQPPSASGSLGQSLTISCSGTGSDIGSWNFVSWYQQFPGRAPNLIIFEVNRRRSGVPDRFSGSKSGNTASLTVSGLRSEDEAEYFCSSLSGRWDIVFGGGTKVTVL | 1.3 fold |
| PGT-125 (antibody, V domains shown) VH: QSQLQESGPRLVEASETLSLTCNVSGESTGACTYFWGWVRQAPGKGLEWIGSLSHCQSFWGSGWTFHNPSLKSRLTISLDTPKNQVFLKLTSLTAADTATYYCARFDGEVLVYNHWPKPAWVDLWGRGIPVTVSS VL: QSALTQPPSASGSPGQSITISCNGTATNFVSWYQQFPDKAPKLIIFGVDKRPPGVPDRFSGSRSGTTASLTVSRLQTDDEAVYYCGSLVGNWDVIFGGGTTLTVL | 0.8 fold |

According to the records, this binder PGT-126 (antibody, V domains shown) VH: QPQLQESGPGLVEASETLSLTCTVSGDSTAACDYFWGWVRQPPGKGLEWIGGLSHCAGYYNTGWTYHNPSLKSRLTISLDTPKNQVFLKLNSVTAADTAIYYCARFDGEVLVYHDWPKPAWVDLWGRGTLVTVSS VL: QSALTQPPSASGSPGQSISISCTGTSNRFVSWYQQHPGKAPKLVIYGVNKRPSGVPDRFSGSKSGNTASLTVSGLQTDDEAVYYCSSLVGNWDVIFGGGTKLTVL displays Fold IC50 increase relative to wild-type of 0.4 fold
